System: SK-MEL-2 melanoma
experimentNotes: NCI-60 one-dose screen, 48 h (100 = growth as untreated, 0 = no growth, -100 = all killed)
testSettings: 10 µM
Description: Growth inhibition of the SK-MEL-2 human tumor cell line is measured as a screen for anti-cancer activity. Cells are grown in 96 well plates and exposed to the test compound for 48 hours. Compounds are tested at a single concentration, which is 10^-5 M for most compounds. The reported endpoint is percent growth (GI% or GIPRCNT), where numbers from 0 - 100% represent growth inhibition, and numbers from -100% - 0 represent cell death. For example, a value of 40 represents 60% growth inhibition. […]
This is part of a sample that, as a whole, favours compounds with a hit. Of some 83,000 tested, about 20% had one in any assay.
Catalogue of growth values
reportedEndpoint: growth (%)

compound	unitTag	measuredNumber
COc1ccc(N2CCN(c3nc(-c4ccccc4)c(C#N)c(=O)[nH]3)CC2)cc1	%	120
FC(F)(F)c1ccc(-c2ncc(-c3ccc(C(F)(F)F)cc3)c(NCc3cc(C(F)(F)F)cc(C(F)(F)F)c3)n2)cc1	%	69.9
O=C(COc1ccc(-c2nc3ccccc3[nH]2)cc1)N=Nc1c(O)[nH]c2ccccc12	%	113
COc1ccc(-n2nnc3c(sc4ccccc43)c2=O)cc1	%	77.1
COc1ccc(-c2cc(/C=C3\C(=O)Nc4cc(Cl)ccc43)[nH]n2)cc1OC	%	58.7
O=C(/C=C/c1ccc(Cl)cc1)c1ccc(Br)cc1	%	104
CCCCn1c(=O)[nH]c(N)c(C(c2ccc(Cl)cc2)c2c(N)[nH]c(=O)n(CCCC)c2=O)c1=O	%	6.4
O=C(Cn1ccc(=O)[nH]c1=O)c1ccc([N+](=O)[O-])o1	%	101
O/N=C1\CCC2CCCCC2C1 (stereo not given)	%	101
O=CNc1c(Cl)cc2c(c1Cl)Cc1cc([N+](=O)[O-])ccc1-2	%	38.1

====

Tested on: IGROV1 ovarian
experimentNotes: NCI-60 one-dose screen, 48 h
testSettings: 10 µM
Compounds without any hit were thinned out: in the full panel of roughly 83,000, 20% have a hit. The source made the active and inactive calls. How the source made its calls: active means growth percent below 10; inactive means the rest.
Outcomes: Y for active, N for inactive

compound	classAssignment
CCOC(=O)c1c(C(F)(F)F)n([O-])c2ccc(OC)cc2[n+]1=O	N
Cc1c(C(=O)N[C@H](CO)Cc2ccccc2)[nH]c2ccc(Cl)cc2c1=O	N
FC(F)(F)c1ccc(-c2ncc(-c3ccc(C(F)(F)F)cc3)c(NCc3cc(C(F)(F)F)cc(C(F)(F)F)c3)n2)cc1	N
Cc1cn(C(=O)/C(Cl)=C(/Cl)C(=O)O)c2ccccc12	N
O=C(c1ccccc1)C(Nc1ccccc1)c1ccccc1 (stereo not given)	N
Nc1c(C(=O)NC2CCCCC2)sc2nc3c(cc12)C(=O)CCC3	N
Cc1ccc(/C(CS(=O)(=O)c2ccc(C)cc2)=N\O)cc1	N
Nc1ccccc1NC(=O)CCCCCCC(=O)Nc1ccc2c(c1)/C(=C/c1ccc[nH]1)C(=O)N2	N
CC(=O)c1c(O)cc2c3c1OC(C)(C)C1CCC(C)(CC31)O2 (stereo not given)	N
COc1cc(-c2nc3cc(Cl)c(Cl)cc3[nH]2)ccc1OCC(=O)NN	N
CC(=O)OCC(COC(C)=O)(COC(C)=O)COC(C)=O	N
c1ccc(CC(NCCNC(Cc2ccccc2)c2ccccc2)c2ccccc2)cc1 (stereo not given)	N
CNC(=S)Sc1ccc([N+](=O)[O-])cc1[N+](=O)[O-]	N
CCOc1nc(-c2ccccc2)cc2c(O)c(C(=O)NC(C)C)[nH]c(=O)c12	N
O=c1[nH]c(=O)n(C2C[C@@H](O)[C@@H](CO)O2)cc1F (stereo not given in full)	N
Cc1cc(C#Cc2ccccc2)ccc1-n1c(/C=C/c2cc(O)ccc2O)nc2ccccc2c1=O	Y
O=C(Nc1ccc(Oc2ccc(Nc3nc4ccccc4s3)cc2)cc1)Nc1ccc(Cl)c(Cl)c1	N
CCCCn1c(=O)[nH]c2c(c1=O)C(c1ccc(Cl)cc1)c1c([nH]c(=O)n(CCCC)c1=O)N2	N
Nc1ccc2c(c1)Cc1cc(N)c(Cl)cc1-2	N
COc1cccc2c1C(=O)c1c(O)c3c(c(O)c1C2=O)C[C@@](O)(C(=O)COC(=O)c1ccccc1)C[C@@H]3OC1CC(N)C(O)C(C)O1 (stereo not given in full)	Y
